Across several studies, compounds have been characterized by their log10 of Ki on Aminopeptidase N (Sus scrofa, UniProt P15145); a selection follows.
Sequence (P15145 whole entry): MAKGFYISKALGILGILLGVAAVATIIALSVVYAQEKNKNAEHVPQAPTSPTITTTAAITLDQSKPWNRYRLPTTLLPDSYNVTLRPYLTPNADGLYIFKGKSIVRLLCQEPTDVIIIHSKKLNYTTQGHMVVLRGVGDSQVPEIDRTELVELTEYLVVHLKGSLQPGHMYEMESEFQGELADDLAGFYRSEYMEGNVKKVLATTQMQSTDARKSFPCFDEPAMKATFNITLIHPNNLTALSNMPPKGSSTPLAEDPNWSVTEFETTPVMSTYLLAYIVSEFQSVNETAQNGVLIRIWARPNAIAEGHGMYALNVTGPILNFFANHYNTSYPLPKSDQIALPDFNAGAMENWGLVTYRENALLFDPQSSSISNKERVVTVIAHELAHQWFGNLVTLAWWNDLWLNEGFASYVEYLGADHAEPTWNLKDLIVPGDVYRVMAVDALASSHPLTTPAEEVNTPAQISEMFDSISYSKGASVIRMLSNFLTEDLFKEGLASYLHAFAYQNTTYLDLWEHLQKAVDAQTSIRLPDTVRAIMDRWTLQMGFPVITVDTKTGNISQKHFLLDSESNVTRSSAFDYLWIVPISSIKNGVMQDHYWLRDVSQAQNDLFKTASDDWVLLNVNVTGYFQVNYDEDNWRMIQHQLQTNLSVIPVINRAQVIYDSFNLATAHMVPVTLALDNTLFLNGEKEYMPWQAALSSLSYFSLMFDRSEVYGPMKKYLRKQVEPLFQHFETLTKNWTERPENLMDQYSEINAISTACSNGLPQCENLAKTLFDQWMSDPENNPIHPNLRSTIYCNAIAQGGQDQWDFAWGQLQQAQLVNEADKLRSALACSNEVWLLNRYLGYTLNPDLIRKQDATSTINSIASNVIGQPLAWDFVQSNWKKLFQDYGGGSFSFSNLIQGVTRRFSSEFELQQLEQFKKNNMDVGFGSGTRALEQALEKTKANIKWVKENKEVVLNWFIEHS
Would you kindly interpret these values as log10 of Ki expressed in µM?

Ask | # get_value(readout='log10 of Ki', item= NC(Cc1ccccc1)P(=O)(O)CC(Cc1ccccc1)C(=O)O (stereo unspecified) )
Reply | -0.72

Ask | Next compound: NC1CCc2c(Br)ccc(Br)c2CC1=O (racemic)
Reply | -2.22

Ask | Next compound: CC[C@@H](C)[C@H](NC(=O)[C@H](S)[C@@H](N)CCS(=O)(=O)O)C(=O)N[C@@H](CC(=O)O)C(=O)O
Reply | 1.36

Ask | Next compound: CC(C)C[C@H](NC(=O)[C@@H](S)[C@H](N)Cc1ccccc1)C(=O)O
Reply | 0.64

Ask | Next compound: N[C@H](CS)CCS(=O)(=O)O
Reply | 1.40

Ask | Next compound: CC(CC(N)CS)C(=O)O (stereo unspecified)
Reply | 0.45
